System: Trichophyton mentagrophytes KD-04
Assay details: Antifungal activity evaluation test, MIC, Trichophyton mentagrophytes KD-04
Format: cell-based
Condition label: KD04, 168 h, Sabouraud Dextrose Broth, 30° C., 7 days, visual, read-out: MIC T. men. KD-04
Parameter: MIC
Note: a bare number is incomplete; add the unit.

These recorded examples may help you get a feel for the data.
In [3]: df
Out[3]:
                                   molecule  parameter       result
0  COc1ccc(OCCOc2ccccc2C(=NN(C)C)n2ccnc2)cc1        MIC    0.2 µg/mL
1    CN(N=C(c1ccccc1Cl)n1ccnc1)c1ccc(Cl)cc1        MIC    0.2 µg/mL
2           CCCCCOc1cccnc1C(=NN(C)C)n1ccnc1        MIC   1.56 µg/mL
3    CN(C)N=C(c1ccccc1OC(F)(F)C(F)F)n1ccnc1        MIC   0.78 µg/mL
4            CCCCCCn1cccc1C(=NN(C)C)n1ccnc1        MIC  0.025 µg/mL
5  CN(C)N=C(c1ccccc1OCCc1ccc(N(C)C)cc1)n1ccnc1        MIC    0.2 µg/mL
6        CCCCCOc1ccc(F)cc1C(=NN(C)C)n1ccnc1        MIC   0.05 µg/mL
7     CN(C)N=C(c1ccccc1OCCCc1ccccc1)n1ccnc1        MIC   0.05 µg/mL

## Input # get_value(readout='MIC', item= CN(C)N=C(c1ccccc1CCc1ccccc1)n1ccnc1 )
## Output 0.05 µg/mL

## Input Sample Fc1ccc(COc2ccccc2C(=NN2CCCC2)n2ccnc2)cc1 — what was its MIC?
## Output 0.2 µg/mL

## Input If you can, please state the reported MIC value of CN(C)N=C(c1cccn1Cc1ccccc1)n1ccnc1 .
## Output 0.2 µg/mL

## Input Which MIC value belongs to CN(C)N=C(c1ccccc1OC(F)(F)F)n1ccnc1 ?
## Output 0.2 µg/mL

## Input // query MIC value for entry CCCOc1ccccc1C(=NN(C)C)n1ccnc1
## Output 0.2 µg/mL

## Input If you can, please state the reported MIC value of CCC(C)(C)c1ccc(CC(C)CN2C[C@@H](C)O[C@@H](C)C2)cc1 (stereo partly drawn) [AMF, amorolfine, reference compound] .
## Output 0.1 µg/mL

## Input Can you share its MIC? I mean this molecule: CCCCOc1ccccc1C(=NN(C)C)n1ccnc1
## Output 0.1 µg/mL

## Input Which measured MIC value corresponds to CCCCCOc1ccccc1C(=NN1CCCCC1)n1ccnc1 ?
## Output 0.2 µg/mL

## Input State the recorded MIC for this entry: CC(C)Oc1ccccc1C(=NN1CCCCCC1)n1ccnc1
## Output 0.1 µg/mL

## Input Reported MIC for CCCCCOc1ccc(OC)cc1C(=NN1CCCCCC1)n1ccnc1 : what is it?
## Output 0.2 µg/mL

## Input // MIC lookup, key: CN(C)N=C(c1ccccc1SCCOc1ccccc1)n1ccnc1
## Output 0.1 µg/mL

## Input May I ask what MIC has been recorded for CN(C)N=C(c1ccccc1OCCCCOc1ccccc1)n1ccnc1 ?
## Output 0.05 µg/mL

## Input Endpoint output: MIC of COc1cccc(COc2ccccc2C(=NN(C)C)n2ccnc2)c1 . Value?
## Output 0.2 µg/mL

* * *

Recorded measurements of MIC, one per entry
Tested on: Malassezia furfur IFO-0656
Respond numerically; units are µg/mL and should not be typed.

## Input Can you look up MIC on Malassezia furfur IFO-0656 for c1ccc(Oc2ccccc2C(=NN2CCCCCC2)n2ccnc2)cc1 ?
## Output 25

## Input Observed MIC on Malassezia furfur IFO-0656 for CCC(C)n1ncn(-c2ccc(N3CCN(c4ccc(OCC5COC(Cn6cncn6)(c6ccc(Cl)cc6Cl)O5)cc4)CC3)cc2)c1=O (stereo not shown) [ITCZ, itraconazole, reference compound] , please.
## Output 0.05

## Input Param readout = MIC; param system = Malassezia furfur IFO-0656; param query = CCCOc1ccccc1C(=NN(C)C)n1ccnc1 ; response: value
## Output 3.13

## Input Query MIC on Malassezia furfur IFO-0656 for CN(C)N=C(c1ccccc1OCCc1ccc(N(C)C)cc1)n1ccnc1
## Output 0.2

## Input Form field - read-out: MIC; system: Malassezia furfur IFO-0656; submitted item: C=CCOc1ccccc1C(=NN1CCCCCC1)n1ccnc1
## Output 0.2

## Input What MIC appears in the records for this molecule with Malassezia furfur IFO-0656? COc1cccc(COc2ccccc2C(=NN(C)C)n2ccnc2)c1
## Output 0.78

## Input Form field: MIC recorded for CCc1ccccc1C(=NN1CCCCCC1)n1ccnc1 with Malassezia furfur IFO-0656 (enter value)
## Output 1.56

## Input For Malassezia furfur IFO-0656, provide MIC of CCCCCOc1ccc2ccccc2c1C(=NN(C)C)n1ccnc1 please.
## Output 6.25

## Input Request - read-out MIC | tested on Malassezia furfur IFO-0656 | molecule CCCSc1ccccc1C(=NN(C)C)n1ccnc1
## Output 3.13

## Input // fetch Malassezia furfur IFO-0656 MIC for CN(C)N=C(c1ccccc1SCCOc1ccccc1)n1ccnc1
## Output 0.05

## Input # query: MIC | item CN(C)N=C(c1sccc1OCCOc1ccccc1)n1ccnc1 | system: Malassezia furfur IFO-0656
## Output 0.2

## Input Tell me reported MIC for CCN(C)N=C(c1ccccc1OCCOc1ccccc1)n1ccnc1 , tested with Malassezia furfur IFO-0656.
## Output 0.2

## Input For the record COc1ccc(COc2ccccc2C(=NN(C)C)n2ccnc2)cc1 , what value of MIC is listed for Malassezia furfur IFO-0656?
## Output 0.39

## Input Find MIC (Malassezia furfur IFO-0656) for the entry C/C=C\Oc1ccccc1C(=NN(C)C)n1ccnc1
## Output 6.25

## Input Find the measured MIC: item CN(C)N=C(c1ccccc1OCCOc1ccccc1)n1ccnc1 , target or system Malassezia furfur IFO-0656.
## Output 0.39

## Input Look up MIC with Malassezia furfur IFO-0656 for this molecule: CC(C)Oc1ccccc1C(=NN1CCCCCC1)n1ccnc1
## Output 0.78

## Input State its MIC on Malassezia furfur IFO-0656: CCCCCOc1ccc(F)cc1C(=NN(C)C)n1ccnc1
## Output 0.39

* * *

Tested on: Trichophyton mentagrophytes KD-04
Assay details: Antifungal activity evaluation test, MIC, Trichophyton mentagrophytes KD-04
Format: cell-based
Condition label: KD04, 168 h, Sabouraud Dextrose Broth, 30° C., 7 days, visual, read-out: MIC T. men. KD-04
Parameter: MIC (µg/mL)
Note: unit µg/mL is implicit; provide only the numeric part.

>>> print(df.to_string())
                                   compound  number
0  CSc1ccccc1C(=NN(C)C)n1ccnc1 [Compound No. 79]    0.39

## Input Reported MIC for CCOc1ccccc1C(=NN(C)C)n1ccnc1 [Compound No. 16] : what is it?
## Output 0.2

## Input What value of MIC has been reported for the following compound? CCSc1ccccc1C(=NN(C)C)n1ccnc1 [Compound No. 80]
## Output 0.2

* * *

Measured MIC, listed per entry for reference.
System: Malassezia furfur IFO-0656

Take a look at these entries with their results.
In [3]: df
Out[3]:
                                molecule  parameter      result
0  CN(C)N=C(c1ccccc1CCCOc1ccccc1)n1ccnc1        MIC   0.2 µg/mL
1           CCOc1ccccc1C(=NN(C)C)n1ccnc1        MIC  12.5 µg/mL
2     CN(C)N=C(c1ccccc1OC(F)(F)F)n1ccnc1        MIC  6.25 µg/mL

## Input Form field: MIC recorded for CN(N=C(c1ccccc1Cl)n1ccnc1)c1ccc(Cl)cc1 with Malassezia furfur IFO-0656 (enter value)
## Output > 10 µg/mL

## Input Quick check: MIC on Malassezia furfur IFO-0656, item CN(C)N=C(c1ccccc1CCc1ccccc1)n1ccnc1 ?
## Output 0.78 µg/mL

## Input API: value(readout= MIC, system= Malassezia furfur IFO-0656, query= CCCCCOc1ccc(OC)cc1C(=NN1CCCCCC1)n1ccnc1 )
## Output 1.56 µg/mL

## Input For the record CCC(C)(C)c1ccc(CC(C)CN2C[C@@H](C)O[C@@H](C)C2)cc1 (stereo partly shown) [AMF, amorolfine, reference compound] , what value of MIC is listed for Malassezia furfur IFO-0656?
## Output 0.05 µg/mL

## Input Kindly state the measured MIC obtained for CN(C)N=C(c1cccn1Cc1ccccc1)n1ccnc1 with Malassezia furfur IFO-0656.
## Output 25 µg/mL

## Input Value wanted: MIC (Malassezia furfur IFO-0656) of entry CN(C)N=C(c1ccccc1OCCCc1ccccc1)n1ccnc1
## Output 0.2 µg/mL

## Input Please provide the recorded MIC for CCN(CC)N=C(c1ccccc1OCc1ccc(Cl)cc1)n1ccnc1 , tested on Malassezia furfur IFO-0656.
## Output 0.39 µg/mL

## Input Request - read-out MIC | tested on Malassezia furfur IFO-0656 | molecule CCCCCOc1ccccc1C(=NN1CCCC1)n1ccnc1
## Output 0.2 µg/mL

## Input Query MIC on Malassezia furfur IFO-0656 for CCCCCOc1cccnc1C(=NN(C)C)n1ccnc1
## Output > 25 µg/mL

## Input Quick check: MIC on Malassezia furfur IFO-0656, item c1ccc(OCCOc2ccccc2C(=NN2CCCC2)n2ccnc2)cc1 ?
## Output 0.39 µg/mL

## Input Lookup: MIC / Malassezia furfur IFO-0656 / CN(C)N=C(c1ccccc1OCCCCOc1ccccc1)n1ccnc1
## Output 0.05 µg/mL

## Input Short answer please: MIC, Malassezia furfur IFO-0656, entry C=CCOc1ccccc1C(=NN(C)C)n1ccnc1
## Output 12.5 µg/mL

## Input Notebook entry, Malassezia furfur IFO-0656 assay: MIC of CCCCCCn1cccc1C(=NN(C)C)n1ccnc1 = ?
## Output > 25 µg/mL

## Input Recorded MIC for Fc1ccc(COc2ccccc2C(=NN2CCCC2)n2ccnc2)cc1 with Malassezia furfur IFO-0656, please?
## Output 1.56 µg/mL

## Input Quick check: MIC on Malassezia furfur IFO-0656, item CCCCSc1ccccc1C(=NN(C)C)n1ccnc1 ?
## Output 0.78 µg/mL

## Input Recall the recorded MIC for CC(C)Oc1ccccc1C(=NN(C)C)n1ccnc1 with Malassezia furfur IFO-0656 and state it.
## Output 25 µg/mL
